tested on: ACHN; assay: NCI tumour cell line growth inhibition, 48 h
Activity calls are given as the source filed them. Rule as the data show it: active = GI50 up to about 1.1 µM and inactive = higher.
Outcome codes: YES = active, NO = inactive

Molecule | Study Target | Classification
C/C(=N\NC(=N)N)C(CN(C)C)C(c1ccccc1)c1c(O)c2ccccc2oc1=O (centres undefined) | ACHN | NO
CCCCCCCCCC/C=C/C=O | ACHN | NO
Ic1cccc(/C=C/CN2CCN(CCOC(c3ccccc3)c3ccccc3)CC2)c1 | ACHN | NO
CC(C)(C)C1=CC(C)(n2[nH]c(=O)n(-c3ccccc3)c2=O)C=C(C(C)(C)C)C1=O | ACHN | NO
CC1(C)CC(=O)c2c(nc3ccc4ccccc4c3c2-c2ccc(NC(=O)CCCCC(=O)Nc3ccc(-c4c5c(nc6ccc7ccccc7c46)CC(C)(C)CC5=O)cc3)cc2)C1 | ACHN | NO
CC(=O)Nc1ccc(C(=O)NN2C(=O)C(Cl)C2c2ccc(Cl)cc2)cc1 (centres undefined) | ACHN | NO
CC(=O)NC1(C)CCC(C(C)(C)NC(C)=O)CC1 (centres undefined) | ACHN | NO
COc1ccc2cc(/C=N\NC(=O)Nc3cccc4ccccc34)ccc2c1 | ACHN | NO
CC(C)=CCC[C@]1(C)C=Cc2c(O)c3c(c(CC=C(C)C)c2O1)O[C@]12C(=C[C@@H]4CC1C(C)(C)O[C@@]2(C/C=C(/C)C(=O)O)C4=O)C3=O | ACHN | YES
